Experimental Details: physchem
Test Parameters: 20 mm phosphate buffer, pH 7, aqueous buffer
Measured Parameter: solubility

Structure Notation: N#CCCCCC#N
Reported Result: ~600 mM

* * *

Experimental Details: Solubility of dinitrile in the aqueous cell suspension
Format: physicochemical
Test Parameters: aqueous cell suspension of Acidovorax facilis 72W, two-phase above this concentration; read-out: concentration above which the solubility of the dinitrile was exceeded

Structure Notation: C=C(C#N)CCC#N
solubility: ≤ 400 mM
